# EXPERIMENTAL TARGET: BACE1 (Homo sapiens (Human), UniProt P56817)
# Sequence (P56817 46-501): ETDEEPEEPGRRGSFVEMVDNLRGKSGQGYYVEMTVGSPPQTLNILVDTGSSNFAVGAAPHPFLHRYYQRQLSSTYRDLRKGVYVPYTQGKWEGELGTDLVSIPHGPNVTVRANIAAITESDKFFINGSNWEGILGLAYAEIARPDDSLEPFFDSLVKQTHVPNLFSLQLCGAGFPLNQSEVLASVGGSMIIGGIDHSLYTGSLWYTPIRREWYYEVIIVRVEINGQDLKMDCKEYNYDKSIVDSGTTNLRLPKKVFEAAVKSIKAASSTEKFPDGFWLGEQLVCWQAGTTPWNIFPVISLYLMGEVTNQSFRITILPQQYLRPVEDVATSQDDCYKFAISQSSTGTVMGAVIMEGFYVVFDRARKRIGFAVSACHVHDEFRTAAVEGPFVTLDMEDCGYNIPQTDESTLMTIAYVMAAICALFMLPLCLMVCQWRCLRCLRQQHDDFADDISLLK
# TEST DESCRIPTION: Cellular Aβ-lowering assay (Aβ40 ELISA in HEK293 cells expressing human APP695)
# ASSAY CONDITIONS: HEK293 cells stably transfected with human APP wt (APP695), Aβ40 in supernatant after 18-20 hrs
PROPERTY NAME: IC50 (nM)

Record excerpt, results attached:
compound="C[C@]1(c2cc(NCc3nn(C(F)F)cc3Cl)ccc2F)N=C(N)COC[C@@H]1F [Example 2]" property_name=IC50 value_reported=40
compound="CC1(C)OCC(N)=N[C@](C)(c2cc(Nc3ccc(OCC(F)(F)F)nc3)ccc2F)C1(F)F [Example 28]" property_name=IC50 value_reported=12700
compound="C[C@]1(c2cc(N[C@@H]3CCc4cc(Cl)cnc43)ccc2F)N=C(N)COCC1(F)F [Example 9]" property_name=IC50 value_reported=2100
compound="CC1(C)OCC(N)=N[C@](C)(c2cc(NC3COc4cc(Cl)ccc43)ccc2F)C1(F)F (some centres unmarked) [Example 17]" property_name=IC50 value_reported=320

I. C[C@]1(c2cc(NC3CCc4cc(Cl)cnc43)ccc2F)N=C(N)COC[C@@H]1F (some centres unmarked) [Example 1]
II. CC1(C)OCC(N)=N[C@](C)(c2cc(NC3COc4cc(Cl)cnc43)ccc2F)C1(F)F (some centres unmarked) [Example 15]
III. C[C@]1(c2cc(NC3CCCOC3)ccc2F)N=C(N)COC[C@@H]1F (some centres unmarked) [Example 4]
## Input Sequence the entries by IC50, beginning with the highest number. Give the labels in the order requested.
## Output III, I, II

====

# EXPERIMENTAL TARGET: UniProtKB P56817
# TEST DESCRIPTION: Cellular Aβ-lowering assay (Aβ40 ELISA in HEK293 cells expressing human APP695)
# ASSAY CONDITIONS: HEK293 cells stably transfected with human APP wt (APP695), Aβ40 in supernatant after 18-20 hrs
PROPERTY NAME: IC50 (nM)

Record excerpt, results attached:
compound="C[C@]1(c2cc(NCc3nn(C(F)F)cc3Cl)ccc2F)N=C(N)COCC1(F)F [Example 6]" property_name=IC50 value_reported=30
compound="CC1(C)OCC(N)=N[C@](C)(c2cc(N[C@@H]3CCc4cc(C#N)cnc43)ccc2F)C1(F)F [Example 13]" property_name=IC50 value_reported=310

A. CC1(C)OCC(N)=N[C@](C)(c2cc(Nc3ccc(Cl)nc3)ccc2F)C1(F)F [Example 22]
B. Cc1ccc(Nc2ccc(F)c([C@@]3(C)N=C(N)COC(C)(C)C3(F)F)c2)cn1 [Example 27]
## Input Thinking about recorded IC50 values, which is higher, A or B ? Indicate your choice by writing its label.
## Output B

====

# EXPERIMENTAL TARGET: BACE1 (Homo sapiens (Human), UniProt P56817)
# TEST DESCRIPTION: Cellular Aβ-lowering assay (Aβ40 ELISA in HEK293 cells expressing human APP695)
# ASSAY CONDITIONS: HEK293 cells stably transfected with human APP wt (APP695), Aβ40 in supernatant after 18-20 hrs
PROPERTY NAME: IC50 (nM)

A. C[C@]1(c2cc(NC3CCOCC3)ccc2F)N=C(N)COC[C@@H]1F
B. CC1(C)OCC(N)=N[C@](C)(c2cc(N[C@@H]3CCc4cc(C#N)cnc43)c(F)cc2F)C1(F)F
## Input Thinking about recorded IC50 values, which is higher, A or B ? Indicate your choice by writing its label.
## Output B

a. CC1(C)OCC(N)=N[C@](C)(c2cc(Nc3cncc(F)c3)ccc2F)C1(F)F
b. C[C@]1(c2cc(Nc3ccc(C#N)cc3)ccc2F)N=C(N)COCC1(F)F
## Input Thinking about recorded IC50 values, which is higher, a or b ? Indicate your choice by writing its label.
## Output b
(b: 700 nM, a: 440 nM)

A. C[C@]1(c2cc(N[C@H]3CCc4cc(Cl)cnc43)ccc2F)N=C(N)COCC1(F)F
B. COc1ccc(Nc2ccc(F)c([C@@]3(C)N=C(N)COC(C)(C)C3(F)F)c2)cn1
## Input Which has the smaller recorded IC50, A or B ? Indicate your choice by writing its label.
## Output A

====

pIC50: −log10 of the molar value.
These records show pIC50 for BACE2 (Homo sapiens (Human)).
PROPERTY NAME: pIC50

compound=CC1(C)OCC(N)=N[C@](C)(c2cc(Nc3ccc(OCC(F)(F)F)nc3)ccc2F)C1(F)F experimental_target="BACE2 (Homo sapiens (Human))" value_reported=5.83

P. CC1(C)OCC(N)=N[C@](C)(c2cc(Nc3ccc(Cl)nc3)ccc2F)C1(F)F
Q. CC1(C)OCC(N)=N[C@](C)(c2cc(N[C@H]3CCc4cc(C#N)cnc43)c(F)cc2F)C1(F)F
R. C[C@]1(c2cc(NC3CCc4cc(Cl)cnc43)ccc2F)N=C(N)COC[C@@H]1F (some centres unmarked)
S. CC1(C)OCC(N)=N[C@](C)(c2cc(Nc3cccnc3)ccc2F)C1(F)F
## Input Sequence the entries by pIC50, beginning with the highest number. Give the labels in the order requested.
## Output R, Q, S, P

====

These records show IC50 for BACE2 (Homo sapiens (Human), UniProt Q9Y5Z0).
PROPERTY NAME: IC50 (µM)

Record excerpt, results attached:
compound=CC1(C)OCC(N)=N[C@](C)(c2cc(N[C@@H]3CCc4cc(C#N)cnc43)ccc2F)C1(F)F value_reported=0.095
compound="CC1(C)OCC(N)=N[C@](C)(c2cc(NC3COc4cc(Cl)cnc43)ccc2F)C1(F)F (some centres unmarked)" value_reported=0.058
compound="C[C@]1(c2cc(NC3CCOC3)ccc2F)N=C(N)COC[C@@H]1F (some centres unmarked)" value_reported=0.072
compound=Cn1ccc(Nc2ccc(F)c([C@@]3(C)N=C(N)COC(C)(C)C3(F)F)c2)n1 value_reported=0.53
compound=C[C@]1(c2cc(Nc3ccc(C#N)cc3)ccc2F)N=C(N)COCC1(F)F value_reported=0.91
compound="CC1(C)OCC(N)=N[C@](C)(c2cc(NC3CCCc4cc(C#N)cnc43)ccc2F)C1(F)F (some centres unmarked)" value_reported=0.133

A. CC1(C)OCC(N)=N[C@](C)(c2cc(N[C@@H]3CCc4cc(C#N)cnc43)c(F)cc2F)C1(F)F
B. CC[C@]1(c2cc(NCc3nn(C(F)F)cc3Cl)ccc2F)N=C(N)COCC1(F)F
## Input Thinking about recorded IC50 values, which is higher, A or B ? Indicate your choice by writing its label.
## Output A

====

# EXPERIMENTAL TARGET: UniProtKB P56817
# TEST DESCRIPTION: Cellular Aβ-lowering assay (Aβ40 ELISA in HEK293 cells expressing human APP695)
# Assay type: cell-based
# ASSAY CONDITIONS: HEK293 cells stably transfected with human APP wt (APP695), Aβ40 in supernatant after 18-20 hrs
pIC50: −log10 of the molar value.
PROPERTY NAME: pIC50

Record excerpt, results attached:
compound="C[C@]1(c2cc(NC3CCOC3)ccc2F)N=C(N)COC[C@@H]1F (some centres unmarked) [Example 3]" property_name=pIC50 value_reported=6.24
compound="CC1(C)OCC(N)=N[C@](C)(c2cc(Nc3ccc(F)cc3)ccc2F)C1(F)F [Example 19]" property_name=pIC50 value_reported=6.51

P. CC1(C)OCC(N)=N[C@](C)(c2cc(N[C@H]3CCc4cc(C#N)cnc43)c(F)cc2F)C1(F)F [Example 20]
Q. Cn1ccc(Nc2ccc(F)c([C@@]3(C)N=C(N)COC(C)(C)C3(F)F)c2)n1 [Example 18]
## Input Which has the smaller recorded pIC50, P or Q ? Indicate your choice by writing its label.
## Output P
(P: 5.72, Q: 6.62)

====

# EXPERIMENTAL TARGET: UniProt:P56817
# TEST DESCRIPTION: Cellular Aβ-lowering assay (Aβ40 ELISA in HEK293 cells expressing human APP695)
# ASSAY CONDITIONS: HEK293 cells stably transfected with human APP wt (APP695), Aβ40 in supernatant after 18-20 hrs
pIC50: −log10 of the molar value.
PROPERTY NAME: pIC50

compound="CC1(C)OCC(N)=N[C@](C)(c2cc(NC3CCCc4cc(C#N)cnc43)ccc2F)C1(F)F (stereo partly shown)" value_reported=6.92

P. CC1(C)OCC(N)=N[C@](C)(c2cc(Nc3cccnc3)ccc2F)C1(F)F
Q. CC[C@]1(c2cc(NCc3nn(C(F)F)cc3Cl)ccc2F)N=C(N)COCC1(F)F
R. CC1(C)OCC(N)=N[C@](C)(c2cc(NC3CCc4cc(Cl)cnc43)ccc2F)C1(F)F (stereo partly shown)
## Input Sequence the entries by pIC50, beginning with the highest number. Give the labels in the order requested.
## Output R, Q, P
